From: paper PMC7619385

# measurement_target: LmxCLK1 (Leishmania mexicana)
# Sequence (E9AMP2 1-422): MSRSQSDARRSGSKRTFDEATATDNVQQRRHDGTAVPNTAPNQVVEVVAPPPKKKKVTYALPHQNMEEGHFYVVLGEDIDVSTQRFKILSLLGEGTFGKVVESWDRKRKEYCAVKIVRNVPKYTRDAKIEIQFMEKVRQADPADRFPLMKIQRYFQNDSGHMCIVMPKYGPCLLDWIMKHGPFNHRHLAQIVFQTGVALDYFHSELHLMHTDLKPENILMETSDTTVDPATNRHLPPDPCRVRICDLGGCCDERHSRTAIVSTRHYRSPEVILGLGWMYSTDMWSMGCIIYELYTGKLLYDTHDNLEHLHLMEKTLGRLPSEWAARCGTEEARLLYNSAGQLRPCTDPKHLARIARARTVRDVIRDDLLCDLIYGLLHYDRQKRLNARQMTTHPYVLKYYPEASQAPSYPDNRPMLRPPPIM
# method: biochemical
# Assay type: binding
# condition_details: DSF, 10 µM compound, 2 µM LmxCLK1, Run 2
Labelling: ΔTm Run 2 reported below -0.2 °C becomes Criterion met; at or above becomes Criterion not met.

Ask: A record lists Cl.O=S(=O)(c1cccc2cnccc12)N1CCCNCC1 [Fasudil (HA-1077) HCl] . Is its ΔTm Run 2 below -0.2 °C?
Reply: Criterion not met

Ask: Hello, is ΔTm Run 2 of the following molecule strictly smaller than -0.2 °C? COc1cc2ncnc(Nc3ccc(O)c(Br)c3)c2cc1OC [WHI-P154]
Reply: Criterion not met

Ask: Does this molecule meet the criterion ΔTm Run 2 < -0.2 °C? CO[C@H]1C[C@@H]2CC[C@@H](C)[C@@](O)(O2)C(=O)C(=O)N2CCCC[C@H]2C(=O)O[C@H]([C@H](C)C[C@@H]2CC[C@@H](OC(=O)C(C)(CO)CO)[C@H](OC)C2)CC(=O)[C@H](C)/C=C(\C)[C@@H](O)[C@@H](OC)C(=O)[C@H](C)C[C@H](C)/C=C/C=C/C=C/1C [Temsirolimus (CCI-779)]
Reply: Criterion met

Ask: I wonder whether COc1cc2ncnc(Nc3cccc(Cl)c3)c2cc1OC [AG-1478 (Tyrphostin AG-1478)] has ΔTm Run 2 below -0.2 °C. Can you tell?
Reply: Criterion not met

Ask: # TODO verify ΔTm Run 2 < -0.2 °C strictly for this molecule: COc1ccc(COc2cc3oc(=O)c4cc(C(C)O)ccc4c3cc2OC)cc1 (centres unmarked) [Palomid 529 (P529)]
Reply: Criterion not met

Ask: A record lists COc1ncccc1-c1cnn2ccc(N3CCN(C(=O)OC(C)C)CC3)nc12 [LP-935509 (AAK1)] . Is its ΔTm Run 2 below -0.2 °C?
Reply: Criterion met

Ask: is_below(ΔTm Run 2, -0.2 °C) for Cc1cn(-c2cc(NC(=O)c3ccc(C)c(Nc4nccc(-c5cccnc5)n4)c3)cc(C(F)(F)F)c2)cn1 [Nilotinib (AMN-107)] ?
Reply: Criterion not met

Ask: Record CO[C@H]1C[C@@H]2CC[C@@H](C)[C@@](O)(O2)C(=O)C(=O)N2CCCC[C@H]2C(=O)O[C@H]([C@H](C)C[C@@H]2CC[C@H](n3cnnn3)[C@H](OC)C2)CC(=O)[C@H](C)/C=C(\C)[C@@H](O)[C@@H](OC)C(=O)[C@H](C)C[C@H](C)/C=C/C=C/C=C/1C [Zotarolimus(ABT-578)] : is its ΔTm Run 2 strictly below -0.2 °C?
Reply: Criterion not met

Ask: # check: ΔTm Run 2 < -0.2 °C for Oc1ccc(Nc2nc(-c3ccc(Cl)cc3)cs2)cc1 [SKI II]
Reply: Criterion not met

Ask: API: query returns whether the molecule falls strictly under -0.2 °C in ΔTm Run 2. Query: COc1cc2ncnc(Nc3ccc(Cl)cc3F)c2cc1OC [ZM 306416]
Reply: Criterion not met

Ask: Check if ΔTm Run 2 falls below -0.2 °C for Cc1cc(Nc2cc(N3CCN(C)CC3)nc(Sc3ccc(NC(=O)C4CC4)cc3)n2)n[nH]1 [VX-680 (Tozasertib)] .
Reply: Criterion met

Ask: Criterion: ΔTm Run 2 strictly below -0.2 °C. Is it met by O=C1NC(=O)C(=Cc2ccc(-c3ccc(F)cc3)o2)S1 [CAY10505] ?
Reply: Criterion not met
